- Test system: Mycobacterium tuberculosis H37Rv (ATCC: 25177)
log10 MIC values by entry
# values: log10(MIC), units µg/mL

Past entries and their recorded results:
CCOC(=O)c1cc(C(=O)c2ccc(Cl)cc2)n2c1c(Br)cc1ccccc12: 0.90
COC(=O)c1c(C(=O)OC)c2c(Br)cc3ccccc3n2c1C(=O)c1ccc(Cl)cc1: 0.00
CCOC(=O)c1cc(C(=O)c2ccc(C#N)cc2)n2c1c(Br)cc1ccccc12: 0.90
COC(=O)c1c(C(=O)OC)c2c(Br)cc3ccccc3n2c1C(=O)c1ccccc1: 1.51
COC(=O)c1c(C(=O)OC)c2c(Br)cc3ccccc3n2c1C(=O)c1ccc(OC)cc1: -0.30
CCOC(=O)c1cc(C(=O)c2ccc(Br)cc2)n2c1c(Br)cc1ccccc12: 0.30
CCOC(=O)c1cc(C(=O)c2ccc(F)cc2)n2c1c(Br)cc1ccccc12: 0.00

For `COC(=O)c1c(C(=O)OC)c2c(Br)cc3ccccc3n2c1C(=O)c1ccc(C#N)cc1` , write its log10 MIC. 0.90
